- Target of assay: Neuraminidase (Influenza A virus (A/Puerto Rico/8/1934(H1N1)))
- Sequence (P03468 whole entry): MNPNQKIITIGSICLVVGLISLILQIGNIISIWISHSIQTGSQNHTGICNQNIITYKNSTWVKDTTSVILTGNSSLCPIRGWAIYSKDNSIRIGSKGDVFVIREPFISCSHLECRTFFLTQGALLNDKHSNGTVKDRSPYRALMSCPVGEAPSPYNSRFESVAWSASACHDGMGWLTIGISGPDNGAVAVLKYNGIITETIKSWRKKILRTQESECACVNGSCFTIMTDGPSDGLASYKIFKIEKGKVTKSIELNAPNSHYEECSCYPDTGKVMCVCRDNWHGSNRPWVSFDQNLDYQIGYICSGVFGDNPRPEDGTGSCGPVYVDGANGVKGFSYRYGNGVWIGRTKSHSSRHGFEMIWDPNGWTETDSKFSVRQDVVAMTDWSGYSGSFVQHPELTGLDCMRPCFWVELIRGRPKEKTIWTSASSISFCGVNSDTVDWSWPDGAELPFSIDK
- Procedure details: Inhibition of inactivated Influenza A virus (A/Puerto Rico/8/1934(H1N1)) neuraminidase using MUNANA as substrate incubated for 60 mins prior to substrate addition measured after 45 mins by fluorescence assay
Quantity name: IC50 (µM)
Give a bare numeral; the unit µM is implied.

Q: Item under review: "O=C1O/C(=C/c2ccc(O)cc2)C(O)=C1c1ccc(O)cc1" . Reported IC50?
Result: 210

---

- Tested on: Influenza A virus
- Procedure details: microbe, parasite or virus in culture
- Experimental parameters: A/Puerto Rico/8/1934(H1N1), MDCK, 48 h
Give IC50 for every item shown.
Please state the figure in mg/L; there is no need to write the unit.

Q: Requested read-out: IC50. Entry: "O=C1O/C(=C(/C(=O)O)c2ccccc2)C(O)=C1c1ccccc1"
Result: 29.1

Q: And "O=C1O/C(=C\c2ccc(O)cc2)C(O)=C1c1ccc(O)cc1" ?
Result: 56.9

Q: Okay, and "CC(=O)N[C@H]1[C@H]([C@H](O)[C@H](O)CO)OC(C(=O)O)=C[C@@H]1NC(=N)N" ?
Result: 0.0284

Q: Also, "O=C1O/C(=C/c2ccc(O)cc2)C(O)=C1c1ccc(O)cc1" please.
Result: 32.3
